# credit: paper PMC11867108

assayed.system: Bruton's tyrosine kinase (BTK) (Homo sapiens)
Construct: full-length recombinant BTK
Sequence (Q06187 2-659): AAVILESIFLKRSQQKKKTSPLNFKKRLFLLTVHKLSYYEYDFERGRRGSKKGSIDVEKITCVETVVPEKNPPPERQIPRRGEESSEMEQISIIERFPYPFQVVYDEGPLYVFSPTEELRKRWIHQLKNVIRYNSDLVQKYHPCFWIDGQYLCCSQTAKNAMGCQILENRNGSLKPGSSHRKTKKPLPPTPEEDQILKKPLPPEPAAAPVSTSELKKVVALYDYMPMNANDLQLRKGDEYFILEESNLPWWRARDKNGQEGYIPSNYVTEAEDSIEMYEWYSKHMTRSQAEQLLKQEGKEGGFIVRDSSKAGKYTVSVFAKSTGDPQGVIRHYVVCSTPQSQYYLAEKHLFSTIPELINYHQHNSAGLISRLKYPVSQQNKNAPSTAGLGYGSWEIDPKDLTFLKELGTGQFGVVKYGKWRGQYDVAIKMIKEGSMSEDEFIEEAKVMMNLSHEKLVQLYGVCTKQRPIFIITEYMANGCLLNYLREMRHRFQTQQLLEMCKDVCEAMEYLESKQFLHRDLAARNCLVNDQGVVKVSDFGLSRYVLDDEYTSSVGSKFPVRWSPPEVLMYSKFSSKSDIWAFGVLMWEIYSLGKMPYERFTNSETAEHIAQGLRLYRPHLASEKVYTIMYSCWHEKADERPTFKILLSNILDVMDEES
assay: LC-MS/MS of tryptic peptide […]-487 and in-gel fluorescence; ADP-Glo IC50; immunoprecipitation from Ramos cells
Type: biochemical
endpoint.label: IC50

>>> print(df.to_string())
                                   compound                            assayed_system  reported_measurement
0  C=C(CN1CCC(CNc2ncnc(N)c2-c2ccc(Oc3ccccc3)cc2)CC1)C(=O)N1CCC(NC(=O)CCC2=[N+]3C(=Cc4c(C)cc(C)n4[B-]3(F)F)C=C2)CC1 [Evo-2]  Bruton's tyrosine kinase (BTK) (Homo sapiens)               > 10 µM
